Tested on: RPMI-8226 leukemia
Test: NCI tumour cell line growth inhibition, 48 h
Quick reference for GI50 among some molecules

structure_string=Cc1ccccc1NC(=O)N/C(N)=N/c1nc2ccccc2s1 result="0.0402 µM"
structure_string=COc1ccc(Nc2nc(NCc3ccccc3)c3ccccc3n2)cc1 result="1.85 µM"
structure_string=COc1ccc(S(=O)(=O)Nc2cc(/C=C\c3cc(OC)c(OC)c(OC)c3)cc(OC)c2OC)cc1OC result="0.567 µM"
structure_string=O=C(c1ccc(F)c(F)c1Nc1ccc(I)cc1F)N1CC(O)([C@H]2CCCCN2)C1 result="4.03 µM"

Q: Consider the molecule shown here: O=C(Nc1cccc(-n2cc(-c3ccncc3)c(-c3cc(O)cc(Cl)c3)n2)c1)Nc1ccc(Cl)c(Cl)c1 What is its recorded GI50?
Result: 1.44 µM

====

Tested on: KM12 colon
Assay: NCI tumour cell line growth inhibition, 48 h
Attribute: TGI

Please review the entries below; each comes with its answer.
compound=Fc1cc(C2=C[C@H](c3ccc4c(c3)OCO4)NC(=S)N2)c(Cl)cc1Cl result="> 100 µM"
compound=Clc1ccc(NCc2nnc(COc3ccc(OCc4nnc(CNc5ccc(Cl)cc5)o4)c(Cl)c3)o2)cc1 result="> 100 µM"
compound="O=S1Cc2ccccc2CS1 (stereo unspecified)" result="> 100 µM"
compound=O=C(N/N=C\c1ccc([N+](=O)[O-])cc1)Nc1ccccc1 result="> 100 µM"
compound="O=C(O)C(F)(OC(F)(F)C(F)(F)C(F)(F)F)C(F)(F)F (stereo unspecified)" result="> 100 µM"

Q: Item under review: C/C=C/C=C/C1=NN(c2cccc(S(=O)(=O)O)c2)C2(C1)C(Cl)C(=O)N2c1nc2ccccc2s1 (stereo unspecified) . Reported TGI?
Result: 27.3 µM

Q: Then this compound: C/C=C1/CN2CCC34C5=CC(=O)C(c6cc7c(cc6OC)N(C)C6=C(C(=O)OC)CC8(CC)CCCN9CCC67C98)=CC5=NC23CCC1C4C(=O)OC (stereo unspecified)
Result: 30.3 µM

Q: What do you have for Cc1cc2c(cc1Cl)SC(NN(C)C)=NS2(=O)=O ?
Result: > 10 µM

Q: Then this compound: COc1cccc2c3cccc(OC)c3c3[nH]cnc3c12
Result: 4.56 µM

Q: Param item: Cc1ccc2c(=O)c(-c3nnsn3)c[nH]c2n1
Result: > 100 µM

Q: Also need Cc1cc(C)nc(NC(=S)Nc2cccc(Cl)c2)c1 , thanks.
Result: > 100 µM

====

# TGI listing for each entry below
System: DMS 273 small cell lung
Experiment: NCI tumour cell line growth inhibition, 48 h

Completed entries (count: 5):
compound="CCC1(O)C(=O)OCc2c1cc1n(c2=O)Cc2c-1nc1ccccc1c2OC (stereo not given)" result="0.108 µM"
compound=O=c1oc2c(ccc3occc32)c(N2CCCCC2)c1-c1ccccc1 result="> 100 µM"
compound=CSc1nc2nc(C)c(C)nc2c(=O)[nH]1 result="> 100 µM"
compound="COC(=O)C1C2CC3C(OC(=O)C31)C2I (stereo not given)" result="> 100 µM"
compound=CCOC(=O)/C(=C/c1cc(OC)ccc1OC)CC(=O)O result="> 100 µM"

Q: I am curious: what TGI value has been reported for CC1=C(C)C(=O)c2c(cc3c4ccccc4ccn23)C1=O ?
Result: > 100 µM

Q: Try the compound Cc1cc(NC(=O)NC(=O)c2ccccc2[N+](=O)[O-])ccc1Oc1ncc(Cl)cn1
Result: 0.365 µM

====

System: OVCAR-8 ovarian
Experiment: NCI tumour cell line growth inhibition, 48 h
Would you mind sorting the entries by TGI according to these classes? b0 = under 10 µM, b1 = from 10 µM up to 30 µM, b2 = 30 µM and over

Past entries and their recorded results:
molecule="COC(=O)C1C2CC3C(OC(=O)C31)C2I (configuration not stated)" answer_label=b2
molecule=O=P(O)(O)OP(=O)(O)O answer_label=b2
molecule="COc1ccccc1/C=C1\\CCC(CN(C)C)C1=O (configuration not stated)" answer_label=b1
molecule="CCC(C)[C@H]1C(=O)N=C(N)N1C(=O)OCc1ccccc1 (some centres not stated)" answer_label=b2
molecule=CCOc1ccc(/C=N/Nc2cc(C)nc3ccc(Cl)cc23)cc1 answer_label=b0
molecule=NCCCCN answer_label=b2

Alright, here's another molecule for you.
Q: Which band does CNC(=O)c1cc(Oc2ccc3nc(NC(=O)c4cc(C(F)(F)F)cc(C(F)(F)F)c4)sc3c2)ccn1 fall in?
Result: b1

====

Tested on: ACHN renal
Experiment: NCI tumour cell line growth inhibition, 48 h
Form field: TGI (one value per entry).

Please review the entries below; each comes with its answer.
compound=CCOC(=O)/C(=C/c1cc(OC)ccc1OC)CC(=O)O assay_system="ACHN renal" measurement_name=TGI result="> 100 µM"
compound="CCC1(O)C(=O)OCc2c1cc1n(c2=O)Cc2c-1nc1ccccc1c2OC (stereo unspecified)" assay_system="ACHN renal" measurement_name=TGI result="0.06 µM"
compound="CC(=O)NC(ON1C(=O)COc2ccccc21)C(Cl)(Cl)Cl (stereo unspecified)" assay_system="ACHN renal" measurement_name=TGI result="> 100 µM"
compound=Oc1ccc(Cl)cc1Cc1cc(Cl)cc(Cc2cc(Cl)ccc2O)c1O assay_system="ACHN renal" measurement_name=TGI result="7.64 µM"
compound=O=C(/C=C/c1ccccc1Cl)c1ccc(O)cc1 assay_system="ACHN renal" measurement_name=TGI result="19.2 µM"

Now consider a different compound.
Q: What TGI value was documented for this compound, CCOC(=O)[C@H](Cc1ccccc1)NC(=O)c1nc[nH]c1[N+](=O)[O-] ?
Result: > 100 µM

====

Test system: MDA-MB-435
Experiment: NCI tumour cell line growth inhibition, 48 h
# TGI values compiled below

Below are worked cases with known answers.
molecule=COc1ccc(-c2cn3c(nc4ccccc43)c(C)n2)cc1 measurement_name=TGI result="> 100 µM"
molecule=CCOC(=O)c1ccc(-c2cccs2)n1C measurement_name=TGI result="> 100 µM"
molecule=O=P(O)(O)OP(=O)(O)O measurement_name=TGI result="> 100 µM"
molecule=Clc1cccc(Cn2cc(Cc3cn(Cc4cccc(Cl)c4)c4ccccc34)c3ccccc32)c1 measurement_name=TGI result="> 100 µM"

Q: Find the recorded TGI belonging to O=C(O)c1ccc([N+](=O)[O-])c(P(=O)(O)O)c1 and report it.
Result: > 100 µM

Q: One more molecule: Clc1ccc(-c2nc(-c3c[nH]c4ncccc34)cs2)cc1
Result: > 100 µM

Q: Also C=CC[Se]C(=O)c1ccccc1OC(C)=O , if possible.
Result: 3.35 µM

====

System: HCT-15 colon
Assay: NCI tumour cell line growth inhibition, 48 h
measurement.name: TGI (µM)
Use µM as the unit, but write only the number.

Would you please look over these solved cases?
molecule=COC(=O)C(=C\Sc1ccccc1)/C=C/C(=O)OC(C)(C)C assay_system="HCT-15 colon" numeric_readout=17.7
molecule=O=C(CSc1nc2ccc(Cl)cc2c(=O)n1-c1ccccc1)N=Nc1c(O)[nH]c2ccc(F)cc12 assay_system="HCT-15 colon" numeric_readout=3.45
molecule=C#CCn1c(=O)c(C)cn(/C(=C/C(=O)OCC)C(=O)OCC)c1=O assay_system="HCT-15 colon" numeric_readout=4.07
molecule="CC(/C=C/C=C/C=C/C=C/C=C/C(O)=C1/C(=O)C(CCC(=O)O)N(C)C1=O)=C\\C(C)C(OC1CC(O)C(O)C(C)O1)C(C)C (stereo not drawn)" assay_system="HCT-15 colon" numeric_readout=19.4

Here's the next entry for you.
Q: Reported TGI, molecule COC(=O)C1=C2C3=C(C(=O)c4ccccc4C3=O)N(Cc3ccccc3)C2(OC(C)=O)C=CC1=O (stereo not drawn) : ____
Result: 53.9

====

System: UACC-62 melanoma
Test: NCI tumour cell line growth inhibition, 48 h; in the data active = GI50 below about 0.43 µM; inactive = the rest
Outcome (select one): true (1) for active, false (0) for inactive

compound=O=C(/C=C/c1ccccc1Cl)c1ccc(O)cc1 answer_label="false (0)"
compound=C=CC[Se]C(=O)c1ccccc1OC(C)=O answer_label="false (0)"
compound=Cc1nc(NC(=O)COc2cccc(/C=C3\COc4ccccc4C3=O)c2)sc1C answer_label="false (0)"
compound=Clc1ccc(N/N=C/c2ccccn2)nc1 answer_label="true (1)"
compound=O=Cc1ncc(-c2ccc(C(F)(F)F)cc2)c(NC2CCCCCC2)n1 answer_label="false (0)"

In the following, a different compound is considered.
Q: For Cn1c(=O)c(Sc2ccccc2F)cc2cnc(NC3CCOCC3)nc21 , what call appears in the results of this test?
Result: false (0)

====

Test system: HOP-62 NSCLC
Experiment: NCI tumour cell line growth inhibition, 48 h; in the data active = GI50 below about 0.43 µM; inactive = the rest
Choose the fitting class; nothing outside active, inactive is accepted.

Q: Name the outcome recorded for CC(C)[C@@H]1NC(=O)[C@]2(C)CSC(=N2)c2csc(n2)CNC(=O)C[C@@H](/C=C/CCS)OC1=O in the assay.
Result: active

Q: Try this compound next: Nc1nn(C(=O)Nc2ccc(Cc3ccccc3)cc2)c2ccc(Cl)cc12
Result: inactive

Q: Entry Cc1ccccc1NC(=O)N/C(N)=N/c1nc2ccccc2s1 please
Result: active

Q: Entry to check: O=C(Nc1cccc(-n2cc(-c3ccncc3)c(-c3cc(O)cc(Cl)c3)n2)c1)Nc1ccc(Cl)c(Cl)c1
Result: inactive

Q: Quick one: C[C@@]12CCC[C@@](C)(C(=O)O)C1CC[C@]13C=C(CO)[C@](O)(CCC12)C3 (stereo partly specified)
Result: inactive

Q: Please do the same for CNC(=O)c1cc(Oc2ccc3nc(NC(=O)c4cc(C(F)(F)F)cc(C(F)(F)F)c4)sc3c2)ccn1 as well.
Result: inactive
